Target: recombinant rat PIM-3 (Rattus norvegicus, UniProt O70444)
Test: PIM-3 Assay (as Example A)
Details: averaged IC50; 30 μM ATP, 3.75 μM PIM2tide, 0.5 nM PIM-3
Where a name gives a salt, the structure may show the parent alone.
Measured IC50 by item
Include the unit right after the number.

{"molecule": "Cn1cc(-c2ccc3ccc(-c4nnc5ccc([C@H](N6CCC(C)(O)C6)C(F)(F)F)cn45)nc3c2)cn1 (single isomer, unassigned; diastereomer 1) [Example 200]", "data-value": "3.4 nM"}
{"molecule": "CCc1cccc2ccc(-c3nnc4ccc([C@@H](N5C[C@@H](O)[C@H](O)C5)C(F)(F)F)cn34)nc12", "data-value": "32 nM"}
{"molecule": "CO[C@@H](C)COc1cc2nc(-c3nnc4ccc([C@@H](N5CC[C@H](N)C5)C(F)(F)F)cn34)ccc2cc1F [Example 323, di-hydrochloride]", "data-value": "0.2 nM"}
{"molecule": "CO[C@H](C)COc1cc2nc(-c3nnc4ccc([C@@H](N5CC[C@H](N)C5)C(F)(F)F)cn34)ccc2cc1F [Example 325, di-hydrochloride]", "data-value": "0.13 nM"}
{"molecule": "CCSc1cccc2ccc(-c3nnc4ccc([C@@H](N5CC[C@H](N)C5)C(F)(F)F)cn34)nc12 [Example 273, hydrochloride]", "data-value": "43 nM"}

Below: the item to evaluate.
Req: Return reported IC50. Input molecule: COc1cccc2ccc(-c3nnc4ccc(C(N5CC[C@H](N)C5)C(F)(F)F)cn34)nc12 (stereo partly drawn) [Example 1, dihydrochloride]
Resp: 1.7 nM

###

compounds and their reported IC50
Target: PIM-1 (Homo sapiens)
Sequence (P11309 whole entry, species assumed): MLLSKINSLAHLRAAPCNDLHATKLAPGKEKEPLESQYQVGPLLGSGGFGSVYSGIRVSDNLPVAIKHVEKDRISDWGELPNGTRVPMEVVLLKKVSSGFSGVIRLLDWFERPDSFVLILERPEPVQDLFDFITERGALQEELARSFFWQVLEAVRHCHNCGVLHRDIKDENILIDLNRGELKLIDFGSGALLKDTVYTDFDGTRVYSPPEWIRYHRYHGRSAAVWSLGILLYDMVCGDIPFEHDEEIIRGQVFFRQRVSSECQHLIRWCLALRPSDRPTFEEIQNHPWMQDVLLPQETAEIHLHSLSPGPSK
Experiment: Enzyme PIM-1 Assay ([33P]ATP incorporation into PIM2tide, filter plate)
Type: biochemical
Conditions: averaged IC50; 35 μM ATP, 7.5 μM PIM2tide, 0.25 nM PIM-1, 60 min at 22° C.
Structures can show the parent of a compound that is named as a salt.
Report the figure in nM without appending any unit label.

Some compounds with known IC50 results, for comparison:
{"compound": "N[C@H]1CCN([C@H](c2ccc3nnc(-c4ccc5cc(F)cc(OCCO)c5n4)n3c2)C(F)(F)F)C1 [Example 254, dihydrochloride]", "measurement-type": "IC50", "quantity-unit": "nM", "data-value": 0.25}
{"compound": "CC(C)(C)c1cccc2ccc(-c3nnc4ccc([C@H](N5CC[C@@H](O)C5)C(F)(F)F)cn34)nc12", "measurement-type": "IC50", "quantity-unit": "nM", "data-value": 0.17}
{"compound": "N[C@@H]1CCN([C@H](c2ccc3nnc(-c4ccc5ccc(C6CC6)cc5n4)n3c2)C(F)(F)F)C1 [Example 61, dihydrochloride]", "measurement-type": "IC50", "quantity-unit": "nM", "data-value": 0.59}

Req: Answer with the recorded IC50 for the compound listed here: CN[C@H]1CCN([C@H](c2ccc3nnc(-c4ccc5cccc(OCC6CC6)c5n4)n3c2)C(F)(F)F)C1 [Example 43, dihydrochloride]
Resp: 0.13

Req: Please give the documented IC50 of COCCOc1ccc2ccc(-c3nnc4ccc([C@@H](N5CC[C@H](N)C5)C(F)(F)F)cn34)nc2c1 [Example 148, dihydrochloride]
Resp: 0.34

Req: Read off the recorded IC50 for COCCc1cc2nc(-c3nnc4ccc([C@@H](N5CC[C@H](N)C5)C(F)(F)F)cn34)ccc2cc1F [Example 153, dihydrochloride]
Resp: 0.19
